# TARGET DESC: T1, UbcH5B S22R C85K covalently linked to Ub (UbcH5B_(S22R)–Ub) (human, UniProt P62837 1-147; P0CG47 1-76, S22R | C85K, Lys85 (C85K) in a stable amide linkage to Ub | covalently linked to Lys85 of UbcH5B S22R C85K (amide linkage))
# T1 construct: UbcH5B, human Ub-conjugating enzyme (E2); ubiquitin (Ub), human, donor Ub; source: E. coli BL21 (DE3) Gold
# PROTOCOL TEXT: SPR; as a1, but UbcH5B–Ub variants diluted in running buffer containing 0.6 mM UbΔGG; GST-cIAP1R coupled to a CM-5 chip, 25 °C; steady-state affinity analysis
# MEASUREMENT CONTEXT: both partners purified
TEST READOUT: Kd (nM)
Value expressed in nM; do not type the unit.

What the record says about GST-cIAP1R (cIAP1 RING domain, residues 556-C, with GST) (domain or fragment, human, UniProt Q13490 556-618, looked up, pGEX4T1 with a TEV site after GST; the tag is not cleaved in this form; source: E. coli BL21 (DE3) Gold; not shown: GST, N-terminal, kept) LSLEEQLRRLQEERTCKVCMDKEVSVVFIPCGHLVVCQECAPSLRKCPICRGIIKGTVRTFLS : Kd is 990
